Attribution: ChEMBL document CHEMBL3044653

inhibition at 150 g/ha by entry:
Tested on: Echinochloa crus-galli
assay-name: Post-emergence herbicidal activity against Echinochloa crus-galli (barnyard grass) assessed as inhibition at 150 g/hectare treated at one-leaf stage by green house assay
Type: functional
Record the value in %, omitting the unit from your answer.

compound	measurement-target	unit-abbreviation	inhibition at 150 g/ha
CC1(C)COP(=O)(C(OC(=O)COc2ccccc2Cl)c2ccco2)OC1 (stereo unspecified)	Echinochloa crus-galli	%	0

Query :: Reported inhibition at 150 g/ha, compound Cc1cc(Cl)ccc1OCC(=O)OC(c1ccccc1)P1(=O)OCC(C)(C)CO1 (stereo unspecified) : ____
Result :: 40

Query :: Reported inhibition at 150 g/ha, compound Cc1cc(Cl)ccc1OCC(=O)OC(C)P1(=O)OCC(C)(C)CO1 (stereo unspecified) : ____
Result :: 30

Query :: Reported inhibition at 150 g/ha, compound COP(=O)(OC)C(C)OC(=O)COc1ccc(Cl)cc1Cl (stereo unspecified) : ____
Result :: 0

* * *

inhibition at 75 g/ha by entry:
System: Setaria viridis
assay-name: Post-emergence herbicidal activity against Setaria viridis (green foxtail) assessed as inhibition at 75 g/hectare treated at one-leaf stage by green house assay
Format: functional
Record the value in %, omitting the unit from your answer.

Some compounds with known inhibition at 75 g/ha results, for comparison:
compound	inhibition at 75 g/ha / %
CC1(C)COP(=O)(C(OC(=O)COc2ccc(Cl)cc2Cl)c2ccc(Cl)cc2Cl)OC1 (stereo not given)	0
CC(OC(=O)COc1ccc(Cl)cc1Cl)P1(=O)OCC(C)(C)CO1 (stereo not given)	0
CC(C)C(OC(=O)COc1ccc(Cl)cc1Cl)P1(=O)OCC(C)(C)CO1 (stereo not given)	0
CCCCC(OC(=O)COc1ccc(Cl)cc1Cl)P1(=O)OCC(C)(C)CO1 (stereo not given)	0

// switching to the query compound
Query :: # get_value(readout= inhibition at 75 g/ha, system= Setaria viridis) for CC1(C)COP(=O)(C(OC(=O)COc2ccc(Cl)cc2Cl)c2ccco2)OC1 (stereo not given)
Result :: 0

* * *

inhibition at 75 g/ha by entry:
Test system: Ipomoea nil
assay-name: Post-emergence herbicidal activity against Ipomoea nil (Japanese morning glory) assessed as inhibition at 75 g/hectare by green house assay
Assay type: functional

compound	inhibition at 75 g/ha
CC1(C)COP(=O)(C(OC(=O)COc2ccc(Cl)cc2Cl)c2ccco2)OC1 (centres undefined)	100%
CC(OC(=O)COc1ccc(Cl)cc1Cl)P1(=O)OCC(C)(C)CO1 (centres undefined)	100%

Query :: Reported inhibition at 75 g/ha, compound O=C(O)CNCP(=O)(O)O [GLYPHOSATE] : ____
Result :: 60%

Query :: Reported inhibition at 75 g/ha, compound Cc1cc(Cl)ccc1OCC(=O)OC(C)P1(=O)OCC(C)(C)CO1 (centres undefined) : ____
Result :: 100%

* * *

Tested on: Oryza sativa
assay-name: Toxicity in Oryza sativa (rice) plant assessed as inhibition at 150 g/hectare
Assay type: organism-based
condition-description: in vivo
recorded-endpoint: inhibition (INH) (%)
Record the value in %, omitting the unit from your answer.

Some molecules with known inhibition (INH) results, for comparison:
molecule	unit-abbreviation	result-number
CC1(C)COP(=O)(C(OC(=O)COc2ccc(Cl)cc2Cl)c2ccc(Cl)cc2)OC1 (stereo not drawn)	%	10
CC(C)C(OC(=O)COc1ccc(Cl)cc1Cl)P1(=O)OCC(C)(C)CO1 (stereo not drawn)	%	20

// switching to the query molecule
Query :: Reported inhibition (INH), molecule CCCCC(OC(=O)COc1ccc(Cl)cc1Cl)P1(=O)OCC(C)(C)CO1 (stereo not drawn) : ____
Result :: 30

* * *

System: Echinochloa crus-galli
assay-name: Post-emergence herbicidal activity against Echinochloa crus-galli (barnyard grass) assessed as inhibition at 150 g/hectare treated at one-leaf stage by green house assay
Type: functional
recorded-endpoint: inhibition at 150 g/ha (%)
Record the value in %, omitting the unit from your answer.

Some compounds with known inhibition at 150 g/ha results, for comparison:
compound	inhibition at 150 g/ha, %
CC1(C)COP(=O)(C(OC(=O)COc2ccc(Cl)cc2Cl)c2ccccc2)OC1 (stereo not given)	0
CC1(C)COP(=O)(C(OC(=O)COc2ccc(Cl)cc2)c2ccccc2)OC1 (stereo not given)	0
CC(OC(=O)COc1ccccc1Cl)P1(=O)OCC(C)(C)CO1 (stereo not given)	20
CC(C)C(OC(=O)COc1ccc(Cl)cc1Cl)P1(=O)OCC(C)(C)CO1 (stereo not given)	0
CC1(C)COP(=O)(C(OC(=O)COc2ccc(Cl)cc2Cl)c2ccc(Cl)cc2)OC1 (stereo not given)	0

Query :: Reported inhibition at 150 g/ha, compound COP(=O)(OC)C(C)OC(=O)COc1ccc(Cl)cc1C (stereo not given) : ____
Result :: 0

Query :: Reported inhibition at 150 g/ha, compound Cc1cc(OCC(=O)OC(c2ccccc2)P2(=O)OCC(C)(C)CO2)ccc1Cl (stereo not given) : ____
Result :: 0

Query :: Reported inhibition at 150 g/ha, compound CC(OC(=O)COc1ccc(Cl)cc1Cl)P1(=O)OCC(C)(C)CO1 (stereo not given) : ____
Result :: 30

Query :: Reported inhibition at 150 g/ha, compound Cc1cc(OCC(=O)OC(C)P2(=O)OCC(C)(C)CO2)ccc1Cl (stereo not given) : ____
Result :: 0

Query :: Reported inhibition at 150 g/ha, compound CC1(C)COP(=O)(C(OC(=O)COc2ccc(Cl)cc2)c2ccco2)OC1 (stereo not given) : ____
Result :: 0

* * *

Test system: Oryza sativa
assay-name: Toxicity in Oryza sativa (rice) plant assessed as inhibition at 150 g/hectare
Assay type: organism-based
condition-description: in vivo
inhibition (INH) by entry:
Phrase the answer as number then unit, nothing more needed.

Some molecules with known inhibition (INH) results, for comparison:
molecule	inhibition (INH)
CC1(C)COP(=O)(C(OC(=O)COc2ccc(Cl)cc2Cl)c2ccccc2)OC1 (stereo not given)	10%
CC1(C)COP(=O)(C(OC(=O)COc2ccc(Cl)cc2Cl)c2ccc(Cl)cc2Cl)OC1 (stereo not given)	10%

Query :: # get_value(readout= inhibition (INH), system= Oryza sativa) for CC(OC(=O)COc1ccc(Cl)cc1Cl)P1(=O)OCC(C)(C)CO1 (stereo not given)
Result :: 10%

Query :: # get_value(readout= inhibition (INH), system= Oryza sativa) for Cc1cc(Cl)ccc1OCC(=O)OC(C)P1(=O)OCC(C)(C)CO1 (stereo not given)
Result :: 10%

Query :: # get_value(readout= inhibition (INH), system= Oryza sativa) for CC1(C)COP(=O)(C(OC(=O)COc2ccc(Cl)cc2Cl)c2ccco2)OC1 (stereo not given)
Result :: 40%

* * *

Test system: Gossypium hirsutum
assay-name: Toxicity in Gossypium hirsutum (cotton) plant assessed as inhibition at 150 g/hectare
Assay type: organism-based
condition-description: in vivo
recorded-endpoint: inhibition (INH)

compound	measurement-target	recorded-endpoint	result
CC1(C)COP(=O)(C(OC(=O)COc2ccc(Cl)cc2Cl)c2ccco2)OC1 (stereo not drawn)	Gossypium hirsutum	inhibition (INH)	30%

Query :: Reported inhibition (INH), compound CC1(C)COP(=O)(C(OC(=O)COc2ccc(Cl)cc2Cl)c2ccccc2)OC1 (stereo not drawn) : ____
Result :: 40%

Query :: Reported inhibition (INH), compound Cc1cc(Cl)ccc1OCC(=O)OC(C)P1(=O)OCC(C)(C)CO1 (stereo not drawn) : ____
Result :: 20%

Query :: Reported inhibition (INH), compound CC1(C)COP(=O)(C(OC(=O)COc2ccc(Cl)cc2Cl)c2ccc(Cl)cc2Cl)OC1 (stereo not drawn) : ____
Result :: 20%

Query :: Reported inhibition (INH), compound CC(C)C(OC(=O)COc1ccc(Cl)cc1Cl)P1(=O)OCC(C)(C)CO1 (stereo not drawn) : ____
Result :: 20%

Query :: Reported inhibition (INH), compound CC1(C)COP(=O)(C(OC(=O)COc2ccc(Cl)cc2Cl)c2ccc(Cl)cc2)OC1 (stereo not drawn) : ____
Result :: 20%

Query :: Reported inhibition (INH), compound CCCCC(OC(=O)COc1ccc(Cl)cc1Cl)P1(=O)OCC(C)(C)CO1 (stereo not drawn) : ____
Result :: 20%

Query :: Reported inhibition (INH), compound CC(OC(=O)COc1ccc(Cl)cc1Cl)P1(=O)OCC(C)(C)CO1 (stereo not drawn) : ____
Result :: 30%

* * *

System: Eclipta prostrata
assay-name: Post-emergence herbicidal activity against Eclipta prostrata assessed as inhibition at 150 g/hectare treated at two-leaf stage by green house assay
Assay type: functional
inhibition at 150 g/ha by entry:
Record the value in %, omitting the unit from your answer.

Some compounds with known inhibition at 150 g/ha results, for comparison:
compound	inhibition at 150 g/ha / %
Cc1cc(Cl)ccc1OCC(=O)OC(c1ccccc1)P1(=O)OCC(C)(C)CO1 (stereo unspecified)	75
Cc1cc(Cl)ccc1OCC(=O)OC(C)P1(=O)OCC(C)(C)CO1 (stereo unspecified)	90
CC(C)C(OC(=O)COc1ccc(Cl)cc1Cl)P1(=O)OCC(C)(C)CO1 (stereo unspecified)	75
CC1(C)COP(=O)(C(OC(=O)COc2ccc(Cl)cc2Cl)c2ccc(Cl)cc2)OC1 (stereo unspecified)	70
CC1(C)COP(=O)(C(OC(=O)COc2ccc(Cl)cc2)c2ccccc2)OC1 (stereo unspecified)	50

Query :: Reported inhibition at 150 g/ha, compound CC1(C)COP(=O)(C(OC(=O)COc2ccccc2Cl)c2ccco2)OC1 (stereo unspecified) : ____
Result :: 70

Query :: Reported inhibition at 150 g/ha, compound CC1(C)COP(=O)(C(OC(=O)COc2ccc(Cl)cc2Cl)c2ccco2)OC1 (stereo unspecified) : ____
Result :: 80
